# assay-info: Pharmacokinetic study for mouse (single intravenous or gavage administration)
# Format: in vivo, mice
# condition-info: plasma, intravenous injection, 1 mg/Kg
measurement-name: half-life (h)
Unit h implied. Number only.

Worked cases, answers included:
In [3]: df
Out[3]:
                                test_smiles  unit_of_measurement  assay_value
0  C[C@H]1Cc2noc(-c3ccc(F)cc3F)c2CN1C(=O)Nc1cc(F)c(F)c(F)c1                    h         9.31
1  C[C@H]1Cc2noc(-c3ccc(F)cn3)c2CN1C(=O)Nc1cc(F)c(F)c(F)c1                    h         5.62

Q: Name the reported half-life value associated with the molecule C[C@H]1Cc2noc(-c3ncccn3)c2CN1C(=O)Nc1ccc(F)c(C#N)c1
Result: 3.03

====

# assay-info: Pharmacokinetic study for mouse (single intravenous or gavage administration)
# Type: in vivo, mice
# condition-info: plasma, oral gavage, 10 mg/Kg
Each entry below carries its recorded Tmax.
Unit min implied. Number only.

In [3]: df
Out[3]:
                                test_smiles  unit_of_measurement  assay_value
0  C[C@H]1Cc2noc(-c3ccc(F)cn3)c2CN1C(=O)Nc1cc(F)c(F)c(F)c1                  min           60

Now, please, on to the next molecule.
Q: Name the reported Tmax value associated with the molecule C[C@H]1Cc2noc(-c3ccc(F)cc3F)c2CN1C(=O)Nc1cc(F)c(F)c(F)c1
Result: 30

====

# assay-info: Pharmacokinetic study for mouse (single intravenous or gavage administration)
# Format: in vivo, mice
# condition-info: plasma, oral gavage, 3 mg/Kg, read-out: AUC0-24 h
measurement-name: AUC(0-t)
Answer with the value and then the unit.

Q: Name the reported AUC(0-t) value associated with the molecule C[C@H]1Cc2noc(-c3ncccn3)c2CN1C(=O)Nc1ccc(F)c(C#N)c1
Result: 16.7 µM·h

====

# assay-info: Pharmacokinetic study for mouse (single intravenous or gavage administration)
# Assay type: in vivo, mice
# condition-info: plasma, intravenous injection, 1 mg/Kg
measurement-name: clearance (mL/min/kg)
Unit mL/min/kg implied. Number only.

Worked cases, answers included:
>>> df
                                test_smiles  measurement_name  unit_of_measurement  assay_value
0  C[C@H]1Cc2noc(-c3ccc(F)cn3)c2CN1C(=O)Nc1cc(F)c(F)c(F)c1         clearance            mL/min/kg          5.8
1  C[C@H]1Cc2noc(-c3ncccn3)c2CN1C(=O)Nc1ccc(F)c(C#N)c1         clearance            mL/min/kg         4.36

Q: Name the reported clearance value associated with the compound C[C@H]1Cc2noc(-c3ccc(F)cc3F)c2CN1C(=O)Nc1cc(F)c(F)c(F)c1
Result: 2.84

====

# System: HBV DNA in HepG2.2.15 cells
# assay-info: In vitro anti-HBV activity assay (HBV DNA in HepG2.2.15 supernatant, qPCR)
# Assay type: cell-based
# condition-info: Hepatitis B virus, HepG2.2.15, 192 h; inhibition of HBV DNA in supernatant, 8 days culture
measurement-name: EC50 (nM)
Unit nM implied. Number only.

Worked cases, answers included:
In [3]: df
Out[3]:
                                test_smiles             target_or_system  assay_value
0  COc1ccc(-c2onc3c2CN(C(=O)Nc2cc(F)c(F)c(F)c2)[C@@H](C)C3)cc1  HBV DNA in HepG2.2.15 cells         10.5
1  C[C@H]1Cc2noc(-c3ccc(F)cc3F)c2CN1C(=O)Nc1ccnc(Cl)c1  HBV DNA in HepG2.2.15 cells         35.2
2  C[C@H]1Cc2noc(-c3ccc(F)cc3F)c2CN1C(=O)Nc1ccc(F)c(Cl)c1  HBV DNA in HepG2.2.15 cells         8.66
3  C[C@H]1Cc2noc(-c3ncccn3)c2CN1C(=O)Nc1ccc(F)c(Cl)c1  HBV DNA in HepG2.2.15 cells         15.6
4  C[C@H]1Cc2noc(-c3ccc(F)cc3F)c2CN1C(=O)Nc1ccc(F)c(C#N)c1  HBV DNA in HepG2.2.15 cells         10.4
5  C[C@H]1Cc2noc(-c3ncccn3)c2CN1C(=O)Nc1ccc(F)c(C#N)c1  HBV DNA in HepG2.2.15 cells         25.4
6  C[C@H]1Cc2noc(-c3ccccc3)c2CN1C(=O)Nc1cc(F)c(F)c(F)c1  HBV DNA in HepG2.2.15 cells         29.3
7  C[C@H]1Cc2noc(-c3ccc(Cl)cc3)c2CN1C(=O)Nc1cc(F)c(F)c(F)c1  HBV DNA in HepG2.2.15 cells         68.8
8  C[C@H]1Cc2noc(-c3ncccn3)c2CN1C(=O)Nc1cc(F)c(F)c(F)c1  HBV DNA in HepG2.2.15 cells         14.9
9  C[C@H]1Cc2noc(-c3ccsn3)c2CN1C(=O)Nc1cc(F)c(F)c(F)c1  HBV DNA in HepG2.2.15 cells         12.2

Q: Name the reported EC50 value associated with the compound C[C@H]1Cc2noc(-c3cnccn3)c2CN1C(=O)Nc1cc(F)c(F)c(F)c1
Result: 58.9

Q: And C[C@H]1Cc2noc(-c3nccs3)c2CN1C(=O)Nc1cc(F)c(F)c(F)c1 ?
Result: 24.6

====

# assay-info: Pharmacokinetic study for mouse (single intravenous or gavage administration)
# Format: in vivo, mice
# condition-info: plasma, oral gavage, 10 mg/Kg, read-out: AUC0-24 h
Each entry below carries its recorded AUC(0-t).
Answer with the value and then the unit.

>>> print(df.to_string())
                                test_smiles  assay_value
0  C[C@H]1Cc2noc(-c3ccc(F)cc3F)c2CN1C(=O)Nc1cc(F)c(F)c(F)c1    66.7 µM·h

Now, please, on to the next compound.
Q: Name the reported AUC(0-t) value associated with the compound C[C@H]1Cc2noc(-c3ccc(F)cn3)c2CN1C(=O)Nc1cc(F)c(F)c(F)c1
Result: 47.2 µM·h

====

# Test system: HBV DNA in HepG2.2.15 cells
# assay-info: In vitro anti-HBV activity assay (HBV DNA in HepG2.2.15 supernatant, qPCR)
# Assay type: cell-based
# condition-info: Hepatitis B virus, HepG2.2.15, 192 h; inhibition of HBV DNA in supernatant, 8 days culture
Each entry below carries its recorded EC50.

Worked cases, answers included:
>>> df
                                   molecule  measurement_name  assay_value
0  C[C@H]1Cc2noc(-c3ccccc3F)c2CN1C(=O)Nc1cc(F)c(F)c(F)c1 [Example 3]              EC50         9 nM
1  C[C@H]1Cc2noc(-c3ccc(F)cc3)c2CN1C(=O)Nc1cc(F)c(F)c(F)c1 [Example 5]              EC50      24.7 nM
2  Cc1cc(NC(=O)N2Cc3c(noc3-c3ccc(F)cc3F)C[C@@H]2C)ccc1F [Example 21]              EC50      5.58 nM

Q: # value lookup — system HBV DNA in HepG2.2.15 cells, readout EC50, item C[C@H]1Cc2noc(-c3ccc(F)cn3)c2CN1C(=O)Nc1cc(F)c(F)c(F)c1 [Example 1]
Result: 5.3 nM

Q: And COc1cccc(-c2onc3c2CN(C(=O)Nc2cc(F)c(F)c(F)c2)[C@@H](C)C3)c1 [Example 8] ?
Result: 37.3 nM

Q: And C[C@H]1Cc2noc(-c3ncccn3)c2CN1C(=O)Nc1ccc(F)c(F)c1 [Example 26] ?
Result: 19.1 nM

Q: And C[C@H]1Cc2noc(-c3cscn3)c2CN1C(=O)Nc1cc(F)c(F)c(F)c1 [Example 15] ?
Result: 6.7 nM

Q: And C[C@H]1Cc2noc(-c3ccc(F)cc3F)c2CN1C(=O)Nc1cc(F)c(F)c(F)c1 [Example 6] ?
Result: 4.9 nM

====

# assay-info: Pharmacokinetic study for mouse (single intravenous or gavage administration)
# Format: in vivo, mice
# condition-info: plasma, oral gavage, 3 mg/Kg
measurement-name: Tmax (min)
Unit min implied. Number only.

Q: Name the reported Tmax value associated with the molecule C[C@H]1Cc2noc(-c3ncccn3)c2CN1C(=O)Nc1ccc(F)c(C#N)c1
Result: 30

====

# assay-info: Pharmacokinetic study for mouse (single intravenous or gavage administration)
# Assay type: in vivo, mice
# condition-info: plasma, intravenous injection, 1 mg/Kg, read-out: AUC0-24 h
measurement-name: AUC(0-t) (µM·h)
Unit µM·h implied. Number only.

Worked cases, answers included:
>>> print(df.to_string())
                                test_smiles  assay_value
0  C[C@H]1Cc2noc(-c3ccc(F)cn3)c2CN1C(=O)Nc1cc(F)c(F)c(F)c1         6.71
1  C[C@H]1Cc2noc(-c3ncccn3)c2CN1C(=O)Nc1ccc(F)c(C#N)c1           10

Q: Name the reported AUC(0-t) value associated with the compound C[C@H]1Cc2noc(-c3ccc(F)cc3F)c2CN1C(=O)Nc1cc(F)c(F)c(F)c1
Result: 11.4
